Assayed target: UniProt P28223
Sequence (P28223 whole entry): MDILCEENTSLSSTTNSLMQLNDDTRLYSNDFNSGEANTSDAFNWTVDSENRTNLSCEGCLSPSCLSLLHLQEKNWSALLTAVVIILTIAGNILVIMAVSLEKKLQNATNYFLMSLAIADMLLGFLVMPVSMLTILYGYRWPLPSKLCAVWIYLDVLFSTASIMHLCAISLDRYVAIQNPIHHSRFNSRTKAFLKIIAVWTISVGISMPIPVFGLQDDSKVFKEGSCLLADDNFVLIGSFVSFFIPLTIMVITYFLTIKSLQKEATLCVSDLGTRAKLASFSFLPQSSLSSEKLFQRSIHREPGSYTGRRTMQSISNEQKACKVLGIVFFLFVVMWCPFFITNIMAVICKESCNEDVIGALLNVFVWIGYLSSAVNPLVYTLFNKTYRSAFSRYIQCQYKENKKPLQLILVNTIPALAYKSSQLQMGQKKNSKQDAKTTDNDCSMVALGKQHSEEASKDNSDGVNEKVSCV
Protocol: Serotonin 5-HT2A in vitro cellular IPOne agonism assay (HTRF)
Setup conditions: CHO-K1 cells, 60 min
Reported endpoint: EC50

Asked: Look up EC50 for this compound: c1ccc2c3c([nH]c2c1)CCN1CCC[C@H]1C3
Given back: > 10000 nM

Asked: Given the entry c1ccc2c3c([nH]c2c1)C[C@@H]1CCCN1CC3 , report its measured EC50.
Given back: 101 to 1000 nM

Asked: Which EC50 value belongs to FC(F)(F)Oc1ccc2c3c([nH]c2c1)CC1CCCN1CC3 (stereo not drawn) ?
Given back: > 10000 nM

Asked: Requested field: EC50. Item: c1ccc2c3c([nH]c2c1)CCN1CCCC1C3 (stereo not drawn)
Given back: 1000 to 10000 nM

Asked: Look up EC50 for this compound: Cn1c2c(c3ccccc31)CC1CCCN1CC2 (stereo not drawn)
Given back: > 10000 nM

Asked: Consider the compound COc1cccc2[nH]c3c(c12)CC1CCCN1CC3 (stereo not drawn) and give its measured EC50.
Given back: 1000 to 10000 nM

Asked: Name the recorded EC50 for COc1ccc2c3c([nH]c2c1)C[C@@H]1CCCN1CC3 .
Given back: > 10000 nM

Asked: Any idea what its EC50 is? The compound is COc1ccc2c3c([nH]c2c1)CC1CCCN1CC3 (stereo not drawn)
Given back: > 10000 nM

Asked: Could you tell me which EC50 is on file for COc1ccc2c3c([nH]c2c1)C[C@H]1CCCN1CC3 ?
Given back: > 10000 nM

Asked: Give the measured EC50 of c1ccc2c3c([nH]c2c1)CCN1CCC[C@@H]1C3 .
Given back: 101 to 1000 nM

Asked: Quick one: EC50 for COc1ccc2c3c([nH]c2c1)CCN1CCCC1C3 (stereo not drawn) ?
Given back: > 10000 nM

Asked: Look up EC50: c1ccc2c3c([nH]c2c1)C[C@H]1CCCN1CC3
Given back: 101 to 1000 nM

Asked: For COc1ccc2c3c([nH]c2c1)CCN1CCC[C@@H]1C3 , what is its reported EC50?
Given back: > 10000 nM

Asked: Given the compound FC(F)(F)c1cccc2[nH]c3c(c12)CC1CCCN1CC3 (stereo not drawn) , what is its reported EC50?
Given back: 1000 to 10000 nM

Asked: Reported EC50 for FC(F)(F)c1cccc2[nH]c3c(c12)CCN1CCCC1C3 (stereo not drawn) : what is it?
Given back: > 10000 nM

Asked: Given the entry Cn1c2c(c3ccccc31)CCN1CCCC1C2 (stereo not drawn) , report its measured EC50.
Given back: 1000 to 10000 nM

Asked: So what does the record say about EC50 for COc1cccc2[nH]c3c(c12)C[C@@H]1CCCN1CC3 ?
Given back: 10 to 100 nM

Asked: Please look up its EC50: FC(F)(F)c1ccc2c3c([nH]c2c1)CC1CCCN1CC3 (stereo not drawn)
Given back: > 10000 nM

Asked: EC50 for COc1cccc2[nH]c3c(c12)C[C@H]1CCCN1CC3 ?
Given back: 10 to 100 nM

Asked: Would you kindly share the measured EC50 for COc1ccc2c3c([nH]c2c1)CCN1CCC[C@H]1C3 ?
Given back: > 10000 nM

Asked: What EC50 value was documented for this compound, c1ccc2c3c([nH]c2c1)CC1CCCN1CC3 (stereo not drawn) ?
Given back: 101 to 1000 nM
